Biological target: UniProtKB P47745
Sequence (P47745 whole entry): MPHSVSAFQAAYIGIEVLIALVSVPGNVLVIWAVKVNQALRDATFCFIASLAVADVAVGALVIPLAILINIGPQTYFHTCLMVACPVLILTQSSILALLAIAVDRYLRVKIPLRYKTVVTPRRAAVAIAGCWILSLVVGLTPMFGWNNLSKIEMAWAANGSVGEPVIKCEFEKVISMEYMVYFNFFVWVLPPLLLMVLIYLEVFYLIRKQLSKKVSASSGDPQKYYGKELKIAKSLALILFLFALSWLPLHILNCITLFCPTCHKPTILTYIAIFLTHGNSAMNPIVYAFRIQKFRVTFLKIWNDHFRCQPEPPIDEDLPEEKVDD
Type: cell membranes, Brain membranes
OBSERVABLE: pKi
Lab note — pKi values are minus log10 of concentrations in M.

pKi for CCCN1C(=O)N2CC(CC)N=C2c2[nH]c(C34CC5CC(CC3C5)C4)nc21 (stereo unspecified) ? 8.24

* * *

Reported solubility values are given for each entry in this list.
assay: Solubility was measured in saline; assay type: physicochemical
Only the number, expressed in µg/mL, is required.

MOLECULE: CCCn1c(=O)c2nc(C(C3CC3)C3CC3)[nH]c2n(CCC)c1=O
solubility (µg/mL): 5.8
--
MOLECULE: CCCN1C(=O)N2CC(CC)N=C2c2[nH]c(C34CC5CC(CC3C5)C4)nc21 (centres undefined)
solubility (µg/mL): 990
--
MOLECULE: CCCn1c(=O)c2[nH]c(C34CC5CC(CC3C5)C4)nc2n(CCC)c1=O
solubility (µg/mL): 0.6

solubility for CCCn1c(=O)c2[nH]c(C3CCC(=O)C3)nc2n(CCC)c1=O (centres undefined) ? 200

* * *

Reported log10 of solubility at 1 h values are given for each entry in this list.
test: physchem; conditions: water
Description: Solubility of the compound(10 mg) was measured in water(2.5 mL) at 20 degree celsius for 1 hr
Hey, these are logged values: log10 of solubility at 1 h, µg/mL being the unit before logging.

COMPOUND: CCCn1c(=O)c2[nH]c(C3CCCC3)nc2n(CCC)c1=O
log10 of solubility at 1 h: 0.52
//
COMPOUND: CCCn1c(=O)c2[nH]c(C3CCC(=O)C3)nc2n(CCC)c1=O (configuration not stated)
log10 of solubility at 1 h: 2.34
//
COMPOUND: CCCN1C(=O)N2C[C@@H](CC)N=C2c2[nH]c(C34CC5CC(CC3C5)C4)nc21
log10 of solubility at 1 h: 3.48
//
COMPOUND: CCCn1c(=O)c2nc(C(C3CC3)C3CC3)[nH]c2n(CCC)c1=O
log10 of solubility at 1 h: 0.93
//
COMPOUND: CCCn1c(=O)c2[nH]c(C34CC5CC(CC3C5)C4)nc2n(CCC)c1=O [ROLOFYLLINE]
log10 of solubility at 1 h: -0.30

log10 of solubility at 1 h for CCCN1C(=O)N2CC(CC)N=C2c2[nH]c(C34CC5CC(CC3C5)C4)nc21 (configuration not stated) ? 3.51

log10 of solubility at 1 h for "CCCN1C(=O)N2C[C@H](CC)N=C2c2[nH]c(C34CC5CC(CC3C5)C4)nc21" ? 3.46
